# key: entry, value: Kd
# target: T1, hPRLR.mmh (soluble monomeric human PRLR) (human)
# T1 construct: soluble monomeric PRLR protein
# T1 chain: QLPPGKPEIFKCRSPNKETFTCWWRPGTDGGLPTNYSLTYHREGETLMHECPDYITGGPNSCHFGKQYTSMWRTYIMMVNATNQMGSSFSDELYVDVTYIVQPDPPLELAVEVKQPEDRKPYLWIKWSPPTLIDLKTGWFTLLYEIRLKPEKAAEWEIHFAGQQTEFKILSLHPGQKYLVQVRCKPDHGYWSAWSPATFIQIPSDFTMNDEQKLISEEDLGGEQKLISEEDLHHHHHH
# testDescription: SPR (Biacore), antibody capture, 37 C
State the answer as a number, implicitly in nM.

H1H6966N (antibody, human IgG1, V domains shown, also called H2M6966N) VH: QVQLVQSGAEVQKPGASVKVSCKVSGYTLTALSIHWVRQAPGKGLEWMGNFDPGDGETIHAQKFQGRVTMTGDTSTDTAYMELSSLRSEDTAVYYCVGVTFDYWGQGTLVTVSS VL: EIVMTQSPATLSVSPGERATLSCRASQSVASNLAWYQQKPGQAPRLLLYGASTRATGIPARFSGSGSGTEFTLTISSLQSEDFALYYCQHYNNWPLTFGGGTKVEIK
0.607

// Kd lookup, binder = H1H6975N (antibody, human IgG1, V domains shown, also called H2M6975N) VH: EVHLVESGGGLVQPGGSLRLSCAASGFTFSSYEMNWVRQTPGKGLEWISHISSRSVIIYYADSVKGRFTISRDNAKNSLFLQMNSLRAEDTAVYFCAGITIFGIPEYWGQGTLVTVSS VL: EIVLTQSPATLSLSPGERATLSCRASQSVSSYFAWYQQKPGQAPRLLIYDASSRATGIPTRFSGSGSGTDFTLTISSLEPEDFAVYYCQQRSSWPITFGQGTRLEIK , result: 1.29

Data point: H1H6792P (antibody, human IgG1, V domains shown, human IgG1 Fc (H1H)) VH: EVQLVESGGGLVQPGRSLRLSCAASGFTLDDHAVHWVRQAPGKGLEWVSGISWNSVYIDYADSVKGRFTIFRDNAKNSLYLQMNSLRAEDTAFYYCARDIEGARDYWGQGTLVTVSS VL: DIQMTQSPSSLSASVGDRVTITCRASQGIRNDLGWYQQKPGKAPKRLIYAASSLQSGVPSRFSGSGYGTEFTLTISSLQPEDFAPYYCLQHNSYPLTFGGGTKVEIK ; Kd = 5.27

Sourced from patent US20180185504A1
